Assay: PSAC antagonists in infected red cells, primary screen, cell-based, P. falciparum Indochina, OD700, 18 h (AID 1157)
Conditions: P. falciparum Indochina infected erythrocytes, osmotic lysis OD700, 18 h; higher = more signal, called active from +8 up or from −8 down
Active and inactive are the calls of the source.
MEASURED_QUANTITY: z-score

For orientation, consider the following solved cases.
1. C=CCN1C(=O)[C@@]2(O[C@@H](CCn3cc(CCO)nn3)[C@H]([Si](C)(C)c3ccc(OC)cc3)[C@H]2C)c2cc(NC(=O)c3ccc(OC)cc3)ccc21 | 0.742 (inactive)
2. C=CCN1C(=O)[C@]2(O[C@H](CCn3cc([C@H](O)c4ccccc4)nn3)[C@@H]([Si](C)(C)c3ccc(OC)cc3)[C@@H]2C)c2cc(N3CCOC3=O)ccc21 | -1.58 (inactive)
3. CC(C)C[C@@H]1NC(=O)[C@@H]2C[C@H](C(=O)NCCCCCNC(=O)CS)[C@H](c3cccc(OCCO)c3)N2C1=O | -1.93 (inactive)

[ask] Reported z-score for C=CCNC(=O)[C@@H]1[C@H]2C(=O)O[C@H](c3ccccc3)[C@H](c3ccccc3)N2[C@H](c2ccc(O)cc2)[C@@]12C(=O)Nc1ccc(C#Cc3ccc(OC)cc3)cc12 : what is it?
[reply] -0.957 (inactive)

[ask] Reported z-score for C=C(/C(=C/C[C@H](OC(=O)c1ccncc1)c1cccc(OCCO)c1)c1cc(C(=O)OC)ccc1OC)C(C)C : what is it?
[reply] -1.19 (inactive)

[ask] Reported z-score for C/C=C/[C@@H](CCn1cc(CCO[Si](C(C)C)(C(C)C)C(C)C)nn1)[Si](C)(C)c1ccc(OC)cc1 : what is it?
[reply] -1.92 (inactive)

[ask] Reported z-score for O=C1N(CCS(=O)(=O)c2ccccc2)Cc2ccccc2[C@@H]2OC(c3ccc(OCCCO)cc3)=N[C@]12Cc1ccccc1 : what is it?
[reply] 2.53 (inactive)

====

Assay: PSAC antagonists in infected red cells, primary screen, cell-based, P. falciparum Indochina, OD700, 18 h (AID 1157)
Conditions: P. falciparum Indochina infected erythrocytes, osmotic lysis OD700, 18 h; higher = more signal, called active from +8 up or from −8 down
The label depends only on z-score: rule met if it is at least 0.2, rule not met if it is smaller.

Some entries whose results are on file:
1) CC(C)NC(=O)[C@@H]1c2ccccc2C(=O)N(Cc2cc(F)cc(C(F)(F)F)c2)[C@H]1c1ccc(CO)cc1 | rule not met
2) COC(=O)c1c(CC[C@@H](CO)NC(=O)Nc2ccc(OC)cc2)oc(C(=O)Cc2ccccc2)c1C(=O)OC | rule met

[ask] Item O=C1O[C@H](c2ccccc2)[C@H](c2ccccc2)N2[C@H]1[C@@H](C(=O)Nc1nc3ccccc3s1)[C@]1(C(=O)Nc3ccc(C#CCCO)cc31)[C@H]2c1ccccc1OCCO with z-score of 0.2 or above?
[reply] rule met

====

Test: yeast growth modulation, basal conditions, primary screen, YJM789 clinical isolate, OD600, 24 h (AID 1089);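 also: growth of clinical yeast isolate S. cerevisiae YJM 789 seeded 1000 cells per well; test concentration not given here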
Conditions: S. cerevisiae YJM789 growth, higher = more signal, called active from +8 up or from −8 down
MEASURED_QUANTITY: z-score
Simply state the number, no unit and no words.

1. O=C1c2ccccc2[C@](Cc2ccccc2I)(C(=O)O)[C@H](c2ccc(CO)cc2)N1Cc1ccccc1Cl | -0.818
2. Cc1ccc(S[C@]2(C(=O)NC3CC3)CC(=O)N(Cc3ccccc3C(F)(F)F)[C@@H]2c2ccc(CO)cc2I)cc1 | -1.31

[ask] Reported z-score for CCCCC(=C=CC[C@@H](O)c1ccc(OCCO)cc1)C[C@@H](O)c1cc(Cl)cc(Cl)c1O : what is it?
[reply] -2.58

[ask] Reported z-score for CO[C@H]1O[C@H](CO)[C@@H](OC(=O)CCc2ccccc2)[C@@H]2OC(=O)[C@H](Cc3ccccc3)C/C=C/C[C@@H](Cc3ccccc3)C(=O)O[C@@H]12 : what is it?
[reply] -0.696

[ask] Reported z-score for COc1ccc([Si](C)(C)[C@@H]2[C@@H](CCn3cc([C@H](O)c4ccccc4)nn3)O[C@]3(C(=O)N(C)c4c(Br)cc(C)cc43)[C@H]2C)cc1 : what is it?
[reply] -2.54

[ask] Reported z-score for COc1ccc(C#Cc2ccc3c(c2)[C@]2(C(=O)N3)[C@H](c3ccc(O)cc3)N3[C@H](c4ccccc4)[C@H](c4ccccc4)OC(=O)[C@H]3[C@@H]2C(=O)N2CCN(c3ncccn3)CC2)cc1 : what is it?
[reply] 0.478

[ask] Reported z-score for COc1ccc([Si](C)(C)[C@@H]2[C@@H](CCn3cc(CCO)nn3)O[C@]3(C(=O)N(Cc4ccc(N5C(=O)c6cccc7cccc5c67)cc4)c4ccccc43)[C@H]2C)cc1 : what is it?
[reply] 0.0277

[ask] Reported z-score for O=C(O)[C@H]1C[C@H]2C(=O)NCC(=O)N2[C@H]1c1cccc(OCCO)c1 : what is it?
[reply] -1.63
